Readings of TGI for the listed compounds
# Tested on: PC-3 prostate
# ASSAY: NCI tumour cell line growth inhibition, 48 h

[[record]]
compound = "NC(=O)c1nnsc1NC=O"
readout_value = "> 100 µM"


Now take the following compound into account.
Prompt: Record request: TGI value, item CCOC(=O)C(O)(NC(=O)NC(O)(C(=O)OCC)C(F)(F)F)C(F)(F)F (stereo not given)
Response: > 100 µM

* * *

Measured GI50 by item
# System: OVCAR-8 ovarian
# ASSAY: NCI tumour cell line growth inhibition, 48 h

[[record]]
structure = "O=C1NN(c2ccccc2)C(=O)/C1=C/c1ccc(Br)o1"
readout_value = "11 µM"

[[record]]
structure = "N#C/C(=C\\c1ccc(Br)cc1)n1nnc2ccccc21"
readout_value = "0.788 µM"


Here's the next entry for you.
Prompt: Would you kindly share the measured GI50 for Fc1ccc2[nH]cc(SSc3c[nH]c4ccc(F)cc34)c2c1 ?
Response: 5.73 µM

* * *

Reported TGI values are given for each entry in this list.
# Tested on: IGROV1 ovarian
# ASSAY: NCI tumour cell line growth inhibition, 48 h
Enter your answer as a number in µM; do not include the unit.

Answered examples (5):
[[record]]
compound = "Cc1nnc(-n2c(O)cc(=O)n(-c3ccccc3)c2=S)nc1/C=C/c1ccc(N(C)C)cc1"
readout_value = 34.2

[[record]]
compound = "O=C1CCS/C(=N\\S(=O)(=O)c2ccc(N3N=C4c5ccccc5CC4C3c3cccs3)cc2)N1C(=O)c1ccccc1 (stereo not given)"
readout_value = 29.9

[[record]]
compound = "COc1ccc2c(c1)/C(=N/OC(C)=O)c1c-2c(=O)[nH]c2ccccc12"
readout_value = 11.8

[[record]]
compound = "COc1ccc(-c2csc(NC(=O)c3cc(O)c(O)c(O)c3)n2)cc1"
readout_value = 32.6

[[record]]
compound = "CNCCCNCCCN1C(=O)c2ccc3c4c(ccc(c24)C1=O)C(=O)N(CCCNCc1ccccc1OC)C3=O"
readout_value = 6.04


Prompt: I would be grateful if you could share the reported TGI for CN(C)CCCn1c2nc(=O)[nH]c(=O)c-2nc2cc(Cl)c(Cl)cc21 .
Response: 13.9

Prompt: Do the same for C=C1C(=O)OC2CC(C)C3C=CC(=O)C3CC12 (stereo not given) please
Response: 13.2

Prompt: Now consider O=C(/C=C/c1ccccc1Cl)c1ccc(Cl)cc1Cl and answer again.
Response: 27.6

* * *

Measured TGI accompanies every entry in the list below.
# Test system: ACHN renal
# ASSAY: NCI tumour cell line growth inhibition, 48 h

Some solved cases for reference:
[[record]]
molecule = "COc1ccc2c(c1)/C(=N/OC(C)=O)c1c-2c(=O)[nH]c2ccccc12"
target_or_test_system = "ACHN renal"
readout_value = "28.2 µM"

[[record]]
molecule = "c1ccc(-c2cc(-c3cccs3)c(-c3cccs3)o2)cc1"
target_or_test_system = "ACHN renal"
readout_value = "> 100 µM"


Prompt: Name the reported TGI value associated with the molecule COC(=O)[C@H](Cc1ccccc1)NP(=O)(O)OCC1C=CC(n2cc(C)c(=O)[nH]c2=O)O1 (stereo not given in full)
Response: 62.6 µM

Prompt: Thanks! And COc1cc2c(cc1OCCCCOc1ccc(-c3nc4ccccc4s3)cc1)N=C[C@@H]1CCCN1C2=O ?
Response: 2.59 µM

Prompt: Also CC1C(=O)O[C@H]2C1CC[C@@]1(C)[C@H](O)CC[C@@]13C[C@]2(O)OO3 (stereo not given in full) , if possible.
Response: > 100 µM
